# Method description: Phase 1 SAD/MAD pharmacokinetics of oral ATI-450 in healthy subjects (incl. 80/120 mg BID extension)
# Type: in vivo, human
# Test context: both sexes, human, plasma, oral, 50 mg, 50 mg BID, day 4; read-out: Ctrough
Outcome measure: concentration at 4 day (ng/mL)
Field format: number, assumed ng/mL, no unit text.

# compound Cc1cnc(-c2ccnc(C(C)(C)O)n2)cc1-n1c(C)cc(OCc2ncc(F)cc2F)c(Cl)c1=O (single isomer, unassigned) ; its concentration at 4 day = 81.5

---

# Method description: Phase 1 SAD/MAD pharmacokinetics of oral ATI-450 in healthy subjects (incl. 80/120 mg BID extension)
# Format: in vivo, human
# Test context: both sexes, human, plasma, oral, 120 mg, 120 mg BID, day 3; read-out: Ctrough
Outcome measure: concentration at 3 day (ng/mL)
Field format: number, assumed ng/mL, no unit text.

# molecule Cc1cnc(-c2ccnc(C(C)(C)O)n2)cc1-n1c(C)cc(OCc2ncc(F)cc2F)c(Cl)c1=O (single isomer, unassigned) ; its concentration at 3 day = 144

---

# Method description: Phase 1 SAD/MAD pharmacokinetics of oral ATI-450 in healthy subjects (incl. 80/120 mg BID extension)
# Type: in vivo, human
# Test context: both sexes, human, plasma, oral, 50 mg, 50 mg BID, day 7; read-out: t1/2 (converted)
Outcome measure: half-life (h)
Field format: number, assumed h, no unit text.

# molecule Cc1cnc(-c2ccnc(C(C)(C)O)n2)cc1-n1c(C)cc(OCc2ncc(F)cc2F)c(Cl)c1=O (single isomer, unassigned) [ATI-450] ; its half-life = 11.6

---

# Method description: Phase 1 SAD/MAD pharmacokinetics of oral ATI-450 in healthy subjects (incl. 80/120 mg BID extension)
# Type: in vivo, human
# Test context: both sexes, human, plasma, oral, 50 mg, 50 mg BID, day 1; read-out: AUC0-t
# Experimental: Study Design. […] Single ascending dose (SAD) cohorts. […] Multiple ascending dose (MAD) cohorts. […] Blood Sampling and Bioanalysis. Two-milliliter blood samples were collected for PK analysis. […] The lower limit of quantification was 0.500 ng/mL. Pharmacokinetics. […] The method was minimally required to have intra- and inter-day precision (coefficients of variation) for pooled plasma quality control samples of ≤15% except at the lower limit of quantitation, where ≤20% was acceptable. […]
Outcome measure: AUC(0-t) (ng·h/mL)
Field format: number, assumed ng·h/mL, no unit text.

# compound Cc1cnc(-c2ccnc(C(C)(C)O)n2)cc1-n1c(C)cc(OCc2ncc(F)cc2F)c(Cl)c1=O (single isomer, unassigned) ; its AUC(0-t) = 1180

---

# Method description: Phase 1 SAD/MAD pharmacokinetics of oral ATI-450 in healthy subjects (incl. 80/120 mg BID extension)
# Format: in vivo, human
# Test context: both sexes, human, plasma, oral, 80 mg, 80 mg BID, day 6; read-out: Ctrough
# Method: Study Design. […] Single ascending dose (SAD) cohorts. […] Multiple ascending dose (MAD) cohorts. […] Blood Sampling and Bioanalysis. Two-milliliter blood samples were collected for PK analysis. […] The lower limit of quantification was 0.500 ng/mL. Pharmacokinetics. […] The method was minimally required to have intra- and inter-day precision (coefficients of variation) for pooled plasma quality control samples of ≤15% except at the lower limit of quantitation, where ≤20% was acceptable. […]
Outcome measure: concentration at 6 day
Please answer using a numeric value trailed by its unit.

# molecule Cc1cnc(-c2ccnc(C(C)(C)O)n2)cc1-n1c(C)cc(OCc2ncc(F)cc2F)c(Cl)c1=O (single isomer, unassigned) ; its concentration at 6 day = 144 ng/mL

---

# Method description: Phase 1 SAD/MAD pharmacokinetics of oral ATI-450 in healthy subjects (incl. 80/120 mg BID extension)
# Type: in vivo, human
# Test context: both sexes, human, plasma, po, 10 mg, single oral dose 10 mg, fasted
Outcome measure: AUC(0-inf) (ng·h/mL)
Field format: number, assumed ng·h/mL, no unit text.

# compound Cc1cnc(-c2ccnc(C(C)(C)O)n2)cc1-n1c(C)cc(OCc2ncc(F)cc2F)c(Cl)c1=O (single isomer, unassigned) [ATI-450] ; its AUC(0-inf) = 285

---

# Method description: Phase 1 SAD/MAD pharmacokinetics of oral ATI-450 in healthy subjects (incl. 80/120 mg BID extension)
# Format: in vivo, human
# Test context: both sexes, human, plasma, oral, 30 mg, 30 mg BID, day 3; read-out: Ctrough
Outcome measure: concentration at 3 day
Please answer using a numeric value trailed by its unit.

# compound Cc1cnc(-c2ccnc(C(C)(C)O)n2)cc1-n1c(C)cc(OCc2ncc(F)cc2F)c(Cl)c1=O (single isomer, unassigned) [ATI-450] ; its concentration at 3 day = 44.1 ng/mL

---

# Method description: Phase 1 SAD/MAD pharmacokinetics of oral ATI-450 in healthy subjects (incl. 80/120 mg BID extension)
# Assay type: in vivo, human
# Test context: both sexes, human, plasma, oral, 50 mg, 50 mg BID, day 1; read-out: AUC0-12
Outcome measure: AUC(0-t) (ng·h/mL)
Field format: number, assumed ng·h/mL, no unit text.

# molecule Cc1cnc(-c2ccnc(C(C)(C)O)n2)cc1-n1c(C)cc(OCc2ncc(F)cc2F)c(Cl)c1=O (single isomer, unassigned) ; its AUC(0-t) = 1180

---

# Method description: Phase 1 SAD/MAD pharmacokinetics of oral ATI-450 in healthy subjects (incl. 80/120 mg BID extension)
# Format: in vivo, human
# Test context: both sexes, human, plasma, oral, 50 mg, 50 mg BID, day 7
Outcome measure: AUC (ng·h/mL)
Field format: number, assumed ng·h/mL, no unit text.

# molecule Cc1cnc(-c2ccnc(C(C)(C)O)n2)cc1-n1c(C)cc(OCc2ncc(F)cc2F)c(Cl)c1=O (single isomer, unassigned) [ATI-450] ; its AUC = 1510

---

# Method description: Phase 1 SAD/MAD pharmacokinetics of oral ATI-450 in healthy subjects (incl. 80/120 mg BID extension)
# Assay type: in vivo, human
# Test context: both sexes, human, plasma, oral, 80 mg BID, day 7; read-out: Ctrough
Outcome measure: concentration at 7 day (ng/mL)
Field format: number, assumed ng/mL, no unit text.

# molecule Cc1cnc(-c2ccnc(C(C)(C)O)n2)cc1-n1c(C)cc(OCc2ncc(F)cc2F)c(Cl)c1=O (single isomer, unassigned) [ATI-450] ; its concentration at 7 day = 158

---

# Tested on: IP10, IFNγ, IL-6, IL-8 and TNF-α
# Method description: Poly(I:C) (TLR3) stimulated cytokines and chemokines in human whole blood
# Type: cell-based
# Test context: poly(I:C) 100 μg/mL, 24 hours
Outcome measure: IC50

# compound Cc1cnc(-c2ccnc(C(C)(C)O)n2)cc1-n1c(C)cc(OCc2ncc(F)cc2F)c(Cl)c1=O (single isomer, unassigned) ; its IC50 = 10 to 100 nM

---

# Method description: Phase 1 SAD/MAD pharmacokinetics of oral ATI-450 in healthy subjects (incl. 80/120 mg BID extension)
# Format: in vivo, human
# Test context: both sexes, human, plasma, oral, 50 mg, 50 mg BID, day 1; read-out: Cmax
# Experimental: Study Design. […] Single ascending dose (SAD) cohorts. […] Multiple ascending dose (MAD) cohorts. […] Blood Sampling and Bioanalysis. Two-milliliter blood samples were collected for PK analysis. […] The lower limit of quantification was 0.500 ng/mL. Pharmacokinetics. […] The method was minimally required to have intra- and inter-day precision (coefficients of variation) for pooled plasma quality control samples of ≤15% except at the lower limit of quantitation, where ≤20% was acceptable. […]
Outcome measure: Cmax (ng/mL)
Field format: number, assumed ng/mL, no unit text.

# compound Cc1cnc(-c2ccnc(C(C)(C)O)n2)cc1-n1c(C)cc(OCc2ncc(F)cc2F)c(Cl)c1=O (single isomer, unassigned) [ATI-450] ; its Cmax = 187

---

# Method description: 13-week oral administration non-clinical safety study, mini-pig
# Assay type: in vivo
# Test context: minipig, in vivo; 13-week oral; read-out: no-observed adverse effect level (NOAEL)
Outcome measure: NOAEL at 13 weeks (mg/kg/day)
Field format: number, assumed mg/kg/day, no unit text.

# compound Cc1cnc(-c2ccnc(C(C)(C)O)n2)cc1-n1c(C)cc(OCc2ncc(F)cc2F)c(Cl)c1=O (single isomer, unassigned) ; its NOAEL at 13 weeks = 60

---

# Method description: Phase 1 SAD/MAD pharmacokinetics of oral ATI-450 in healthy subjects (incl. 80/120 mg BID extension)
# Assay type: in vivo, human
# Test context: both sexes, human, plasma, oral, 30 mg, 30 mg BID, day 4; read-out: Ctrough
Outcome measure: concentration at 4 day

# compound Cc1cnc(-c2ccnc(C(C)(C)O)n2)cc1-n1c(C)cc(OCc2ncc(F)cc2F)c(Cl)c1=O (single isomer, unassigned) ; its concentration at 4 day = 36.8 ng/mL

Just for reference, patent US11844801B2 is where these values come from.
